Provide the reported IC50 of each item.
system under test: PI3K-γ (Homo sapiens)
Sequence (P48736 whole entry, species assumed): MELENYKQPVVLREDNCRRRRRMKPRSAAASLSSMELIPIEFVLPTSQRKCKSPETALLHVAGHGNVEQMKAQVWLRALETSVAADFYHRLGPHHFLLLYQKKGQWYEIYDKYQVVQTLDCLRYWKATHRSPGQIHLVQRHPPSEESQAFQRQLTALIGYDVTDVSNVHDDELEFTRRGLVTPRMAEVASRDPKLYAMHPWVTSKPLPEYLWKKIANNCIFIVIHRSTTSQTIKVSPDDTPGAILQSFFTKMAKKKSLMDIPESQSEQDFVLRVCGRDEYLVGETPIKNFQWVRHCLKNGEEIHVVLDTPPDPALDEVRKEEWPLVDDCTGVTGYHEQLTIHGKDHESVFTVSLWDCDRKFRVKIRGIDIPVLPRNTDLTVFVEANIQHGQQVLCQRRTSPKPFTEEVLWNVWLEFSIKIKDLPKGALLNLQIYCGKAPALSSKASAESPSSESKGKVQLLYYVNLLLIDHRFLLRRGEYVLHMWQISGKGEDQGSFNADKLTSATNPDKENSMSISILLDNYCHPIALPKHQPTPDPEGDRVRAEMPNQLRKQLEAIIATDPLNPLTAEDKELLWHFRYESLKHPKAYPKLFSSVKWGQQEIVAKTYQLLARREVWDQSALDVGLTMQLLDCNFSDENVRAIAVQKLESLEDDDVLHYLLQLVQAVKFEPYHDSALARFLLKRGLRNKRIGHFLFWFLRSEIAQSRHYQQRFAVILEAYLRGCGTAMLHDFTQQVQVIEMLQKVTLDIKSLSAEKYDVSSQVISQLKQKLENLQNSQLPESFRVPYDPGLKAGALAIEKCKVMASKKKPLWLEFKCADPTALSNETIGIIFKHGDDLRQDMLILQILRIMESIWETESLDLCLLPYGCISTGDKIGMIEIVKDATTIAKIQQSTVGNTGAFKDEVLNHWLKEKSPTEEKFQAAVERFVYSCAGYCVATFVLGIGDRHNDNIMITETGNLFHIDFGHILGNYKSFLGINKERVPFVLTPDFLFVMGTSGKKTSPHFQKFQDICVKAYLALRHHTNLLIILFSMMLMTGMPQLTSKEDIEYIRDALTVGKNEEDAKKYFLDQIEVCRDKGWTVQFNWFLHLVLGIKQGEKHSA
measurement protocol: PI3K-gamma fluorescence polarization assay
condition context: read-out: IC50 PI3Kγ
Numbers only, in µM.

Worked examples follow.
test smiles: O=C(Nc1ccc(C(=O)N2CCC(N3CCOCC3)CC2)cc1)Nc1ccc(-c2nc(N3CCOCC3)nc(N3CCOCC3)n2)cc1
experimental endpoint: IC50
numeric result: 0.019

test smiles: CN(C)C(=O)N1CCN(c2nc(-c3ccc(NC(=O)Nc4ccc(C(=O)O)cc4)cc3)nc(N3CCOCC3)n2)CC1
experimental endpoint: IC50
numeric result: 0.0855

test smiles: O=C(Nc1ccncc1)Nc1ccc(-c2nc(N3CCOCC3)nc(N3C4CCCC3COC4)n2)cc1
experimental endpoint: IC50
numeric result: 0.0645

test smiles: O=C(Nc1ccc(C(=O)NCCN2CCCCC2)cc1)Nc1ccc(-c2nc(C3CCOCC3)nc(N3CCOCC3)n2)cc1
experimental endpoint: IC50
numeric result: 0.015

test smiles: O=C(Nc1ccc(-c2nc(OCCC3CCNCC3)nc(N3CC4CCC(C3)O4)n2)cc1)Nc1cccnc1
experimental endpoint: IC50
numeric result: 5

test smiles: O=C(Nc1ccncc1)Nc1ccc(-c2nc(Cl)nc(N3CC4CCC(C3)O4)n2)cc1
experimental endpoint: IC50
numeric result: 9.07

test smiles: CC(C)NC(=O)Nc1ccc(-c2nc(N3CCOCC3)nc(N3C4CCC3COC4)n2)cc1
experimental endpoint: IC50
numeric result: 9.5

test smiles: O=C(Nc1ccc(-c2nc(C3CCOCC3)nc(N3C4CCC3COC4)n2)cc1)Nc1ccc(N2CCN(C3CC3)CC2)cc1
experimental endpoint: IC50
numeric result: 3.12

Batch of 6 compounds: report IC50 for each.
1. CC(C)N1CCN(C(=O)c2ccc(NC(=O)Nc3ccc(-c4nc(N5CCOCC5)nc(N5CCOC[C@@H]5C)n4)cc3)cc2)CC1
2. CC(C)N1CCN(C(=O)c2ccc(NC(=O)Nc3ccc(-c4nc(N5CCCC5)nc(N5CCOCC5)n4)cc3)cc2)CC1
3. Cc1ccc(NC(=O)Nc2ccc(-c3nc(NC4CNC4)nc(N4CCOCC4)n3)cc2)cc1
4. CN(C)C1CCN(C(=O)c2ccc(NC(=O)Nc3ccc(-c4nc(C5CCOCC5)nc(N5CCOCC5)n4)cc3)cc2)CC1
5. CN(C)CCNC(=O)c1ccc(NC(=O)Nc2ccc(-c3nc(N4CCCOCC4)nc(N4CCOCC4)n3)cc2)cc1
6. CCN1CCN(C(=O)c2ccc(NC(=O)Nc3ccc(-c4nc(N5CCCC5)nc(N5CCOCC5)n4)cc3)cc2)CC1

0.0185
0.0505
0.258
0.007
0.015
0.087
